settings: acidic group
value type: pKa
Give the figure only, with no unit attached.

{"compound": "Cc1c[n+]([C@@H]2C[C@@H](O)[C@H](CO)O2)c(O)nc1NCCc1ccccc1", "pKa": 3.83}
{"compound": "CC1(C)CC(=O)C(C=O)C(=O)C1", "pKa": 3.65}
{"compound": "O=c1cccccc1S", "pKa": 5.9}
{"compound": "O=[N+]([O-])c1cccc(S(=O)(=O)O)c1", "pKa": -7.1}
{"compound": "CC1(C)CC(=O)CC(=O)C1", "pKa": 5.21}

We next turn to a different compound, shown below.
Q: Quick one: pKa of Oc1ccccc1O ?
A: 9.33
